- TEST TARGET: interaction between GMPPNP-bound recombinant K-Ras4B G12C mutant protein and cRAF RAS-binding domain (cRAF-RBD) (Homo sapiens, UniProt P01116, G12C)
- Construct: His-tag (N)
- Sequence (P01116 with tags, fused parts or gaps isoform P01116-2 G12C): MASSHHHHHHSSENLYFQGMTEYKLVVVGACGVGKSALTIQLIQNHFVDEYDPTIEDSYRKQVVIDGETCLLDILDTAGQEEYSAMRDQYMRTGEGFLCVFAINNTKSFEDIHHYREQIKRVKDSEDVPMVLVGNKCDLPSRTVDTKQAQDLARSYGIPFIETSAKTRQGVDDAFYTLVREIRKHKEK
- ASSAY OVERVIEW: Inhibitory activity on interaction between KRAS G12C and cRAF (Alpha technology)
- EXPERIMENTAL SETUP: GMPPNP-bound KRAS G12C incubated with compound 25° C. 1 hour; Table 2-1; read-out: IC50
Consider the following molecules and their measured pIC50 readings.
For clarity, pIC50 is expressed as the negative log10 of concentration in mol/L.

Example entries begin here.
COCc1nc2c3c(c(C)cc2n1C)-c1cccn2c(C(=O)c4cc(F)c(NC(=O)/C=C/CN[C@H]5CC[C@H](OC)CC5)c(F)c4)cc(c12)CCN3C (single isomer, unassigned)
7.72
Cn1cnc2c3c(c(C(F)(F)F)cc21)-c1cccn2c(C(=O)c4cc(F)c(NC(=O)/C=C/CN5CCCC[C@H]5CO)c(F)c4)cc(c12)CCO3
7.12

Alright, here's another molecule for you.
Prompt: Please give the measured pIC50 for this molecule: Cn1cnc2c3c(c(C(F)(F)F)cc21)-c1cccn2c(C(=O)c4cc(F)c(NC(=O)/C=C/CN[C@@H]5[C@@H]6COC[C@@H]65)c(F)c4)cc(c12)CCO3
Completion: 8.09

====

- System: MIA PaCa-2 cells
- ASSAY OVERVIEW: Growth inhibition activity on KRAS-G12C mutant cell line (CellTiter-Glo 3D)
- Assay type: cell-based, human
- EXPERIMENTAL SETUP: Homo sapiens, MIA PaCa-2, 72 h, MIA PaCa-2, 3-day culture with compound; Table 3-1
# Lookup of reported IC50 keyed by entry
I only need the number, in nM, no unit after it.

// below: answered compounds
Cn1cnc2c3c(c(C(F)(F)F)cc21)-c1cccn2c(C(=O)c4cc(F)c(NC(=O)/C=C/CN5CC6COCC5C6)c(F)c4)cc(c12)CCO3 (centres unmarked)
14.4
Cc1c2cc(C(F)(F)F)c3c(c2nn1C)N(C)CCc1cc(C(=O)c2cc(F)c(NC(=O)/C=C/CNC4(C)CC4)c(F)c2)n2cccc-3c12 (single isomer, unassigned)
13.5
Cn1cnc2c3c(c(C(F)(F)F)cc21)-c1cccn2c(C(=O)c4cc(F)c(NC(=O)/C=C/CN5C[C@@H]6C[C@H]5CO6)c(F)c4)cc(c12)CCO3
6.1
COc1cc2c(nc(C)n2C)c2c1-c1cc(F)cn3c(C(=O)c4cc(F)c(NC(=O)/C=C/CNC5(C)CC5)c(F)c4)cc(c13)CCN2C (single isomer, unassigned)
2.7
COc1cc(N2CCCC2=O)cc2c1-c1cccn3c(C(=O)c4cc(F)c(NC(=O)/C=C/CNC5(C)CC5)c(F)c4)cc(c13)CCO2
60.3

Prompt: Request: IC50, test system MIA PaCa-2 cells, entry COCCn1cnc2c3c(c(OC)cc21)-c1cccn2c(C(=O)c4cc(F)c(NC(=O)/C=C/CN[C@H]5CCOC5)c(F)c4)cc(c12)CCN3C (single isomer, unassigned)
Completion: 11

Prompt: API: value(readout=IC50, system=MIA PaCa-2 cells) for record CN1CCc2cc(C(=O)c3cc(F)c(NC(=O)/C=C/CNC4(C)CSC4)c(F)c3)n3cccc(c23)-c2c(C(F)(F)F)cc3c(ncn3C)c21
Completion: 28.6

Prompt: Enter reported IC50 observed with MIA PaCa-2 cells for COc1cc2c(nc(C)n2C)c2c1-c1cccn3c(C(=O)c4cc(F)c(NC(=O)/C=C/CNC5(C)CC5)c(F)c4)cc(c13)CCS2
Completion: 7.18

Prompt: Notebook: pull reported IC50 for MIA PaCa-2 cells, entry COC[C@@H]1CCN1C/C=C/C(=O)Nc1c(F)cc(C(=O)c2cc3c4c(cccn24)-c2c(C(F)(F)F)cc4c(ncn4C)c2OCC3)cc1F
Completion: 15

Prompt: Hi! What's the reported IC50 for COc1cc2c(nc(C)n2C)c2c1-c1cccn3c(C(=O)c4cc(F)c(NC(=O)/C=C/CN[C@@H]5CCCOC5)c(F)c4)cc(c13)CCN2C on MIA PaCa-2 cells?
Completion: 6.45

Prompt: Please tell me: IC50 of Cc1nc2c3c(c(C(F)(F)F)cc2n1C)-c1cccn2c(C(=O)c4ccc(NC(=O)/C=C/CNC5(C)COC5)c(F)c4)cc(c12)CCO3 , system MIA PaCa-2 cells?
Completion: 16.4
